Values compiled from BigSolDB 2.1.

condition.set: in isopropanol, 288.15 K
readout.label: solubility (mole fraction)

molecule | value.reported
CC(=O)OC(c1ccccc1)C(Cl)(Cl)Cl (stereo unspecified) | 0.00712

* * *

condition.set: in n-propanol, 313.15 K

compound | solubility (mole fraction)
CC(=O)OC(c1ccccc1)C(Cl)(Cl)Cl (stereo unspecified) | 0.0375

* * *

condition.set: in methanol, 308.15 K

compound | solubility (mole fraction)
CC(=O)OC(c1ccccc1)C(Cl)(Cl)Cl (stereo unspecified) | 0.0153

* * *

condition.set: in ethanol, 313.15 K

compound | solubility (mole fraction)
CC(=O)OC(c1ccccc1)C(Cl)(Cl)Cl (stereo unspecified) | 0.029
